# assay_text: Novel Modifiers of Survival Motor Neuron (SMN) Protein: Gene Identification via Genome-wide siRNA Screen;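 further: luminescence tracks full-length SMN protein made from the SMN2 reporter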
# condition_info: HEK293T SMN2-luciferase reporter, siRNA knockdown, 72 h; actives lie on both sides
Out of some 31,000 sequences screened, about 1,400 (4.5%) were called active.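 How the source made its calls: active means median seed-adjusted z-score above 1 or below -1; inactive means the rest.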 Only a selection was taken, and actives are over-represented in it overall.
The reply should be one of these categories: active, inactive

Some solved cases for reference:
seq | category_label
CCCUUGUAGUGAAACGGAATT against CYP4F8 | inactive
CAUCCAGCCCUUAUACAAATT against RBM24 | inactive
AGGCCUUUCUUACCCAGAATT against MAP2K1 | inactive
GGAGUUCCAAUGGAAGUUATT against PSMD14 | inactive
GGGUCUUCGUCAUGCUCUATT against GPR142 | inactive

Hello, I am checking results. What call was entered for GAGACAAAUUUGGGCCUUATT against HSF4 ?
inactive

Hello, I am checking results. What call was entered for AUGUACAAGUGUCAGCUAATT against VEGFC ?
inactive

Hello, I am checking results. What call was entered for CCGAUCAAGUGAACAUAGATT against AKAP4 ?
inactive

Hello, I am checking results. What call was entered for GCCUAUCAGGAUCCCAGCATT against RIN1 ?
inactive

Hello, I am checking results. What call was entered for CUACUGGACUGAUCAAGCUTT against CTCFL ?
inactive

Hello, I am checking results. What call was entered for GGUUAAAAGUCGGUCCCAATT against SGCG ?
inactive

Hello, I am checking results. What call was entered for UGAUGAAUGUUAUCGAGAATT against RFC2 ?
inactive

Hello, I am checking results. What call was entered for CAGACUGAAGGGUUCCGAATT against MLH3 ?
inactive

Hello, I am checking results. What call was entered for GCCUAGAGCUAAGUACCAATT against CHUK ?
inactive

Hello, I am checking results. What call was entered for ACAAGACUUAUGCAAGAUATT against XRCC6BP1 ?
inactive

Hello, I am checking results. What call was entered for GGCUUGAUAUUUGACAGAATT against BBOX1 ?
inactive

Hello, I am checking results. What call was entered for CCUAUUCCCGAAGCCGUUATT against PLAUR ?
inactive

Hello, I am checking results. What call was entered for GGAAUUCCAGUAACGAUGATT against RNF149 ?
inactive

Hello, I am checking results. What call was entered for GGAUUCCCUUCAAGAUAUATT against NUCB2 ?
inactive

----------
# assay_text: Novel Modifiers of Survival Motor Neuron (SMN) Protein: Gene Identification via Genome-wide siRNA Screen;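 further: luminescence tracks full-length SMN protein made from the SMN2 reporter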
# condition_info: HEK293T SMN2-luciferase reporter, siRNA knockdown, 72 h; actives lie on both sides
# Procedure: Spinal muscular atrophy (SMA) is the most common neuromuscular autosomal recessive disorder and one of the leading genetic causes of infant death. […] Briefly, 1 pmol of each siRNA was spotted to a well of a 384-well plate (Corning, Corning, NY) and 20 microL of serum-free DMEM containing […] of Lipofectamine RNAiMax (Life Technologies, Carlsbad, CA) was then added to each well. […] Raw luminescence reads were normalized to Ambion(R) Silencer(R) Negative Control #2 siRNA, then log10 transformed. […]
Hit rate of the full screen: of about 31,000 sequences, about 1,400 (4.5%) were called active.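 The calls were made as follows: active = median seed-adjusted z-score above 1 or below -1; inactive = the rest.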 Many of the other results were omitted from the sample, so actives are more common in it than they were.
The reply should be one of these categories: t (active), f (inactive)

Some solved cases for reference:
seq | category_label
AAGAGAUUUUUGUAACUGATT against BCL2L14 | f
GUGGUCACUUGGUUCCAGATT against LBX2 | f
CAACUAGUGCAACCAGUAATT against ZNF207 | t

Hello, I am checking results. What call was entered for GACUCAUACGAGCGCAUUATT against SEMA4F ?
f

Hello, I am checking results. What call was entered for GGAGAAGAUACAAAGCGCATT against MED21 ?
t

Hello, I am checking results. What call was entered for GACAUAUAAUGACAUAGAUTT against TRAK1 ?
f

Hello, I am checking results. What call was entered for GGCUUCUUCUCGUGCAUCATT against KCNK3 ?
f
